Values were extracted from ChEMBL document CHEMBL3392996.

- System: Mycobacterium tuberculosis
- Measurement Protocol: Antimicrobial activity against Mycobacterium tuberculosis H37Rv incubated for 48 hrs by microdilution broth method
- Assay type: functional
Please provide measured MIC for the entries that follow.
Numbers only, in mg/L.

- Compound: "O=C1CC(Sc2ccc(F)cc2Cl)N1C(=O)NCc1ccccc1 (racemic)"
  Quantity Measured: "MIC"
  Reported Measurement: 25
- Compound: "O=C1CC([Se]c2ccccc2)N1C(=O)NCc1ccccc1 (racemic)"
  Quantity Measured: "MIC"
  Reported Measurement: 25
- Compound: "O=C1CC(Sc2ccc(C(F)(F)F)cc2)N1C(=O)NCc1ccccc1 (racemic)"
  Quantity Measured: "MIC"
  Reported Measurement: 12.5
- Compound: "COc1cccc(SC2CC(=O)N2C(=O)NCc2ccccc2)c1 (racemic)"
  Quantity Measured: "MIC"
  Reported Measurement: 100

// each compound listed below needs its MIC
1. O=C1CC(Sc2ccccc2)N1C(=O)Nc1cccc2ccccc12 (racemic)
2. O=C1CC(Oc2ccc([N+](=O)[O-])cc2)N1C(=O)NCc1ccccc1 (racemic)
3. O=C1CC(Sc2ccc(F)cc2F)N1 (racemic)
4. O=C1CC(Sc2cc(C(F)(F)F)cc(C(F)(F)F)c2)N1C(=O)NCc1ccccc1 (racemic)
5. O=C1CC(Oc2ccc(C(F)(F)F)cc2)N1C(=O)NCc1ccccc1 (racemic)
6. O=C1CC(Sc2ccc([N+](=O)[O-])cc2)N1C(=O)NCc1ccccc1 (racemic)
7. COc1ccccc1SC1CC(=O)N1C(=O)NCc1ccccc1 (racemic)

Result:
1. 25
2. 250
3. 3.13
4. 6.25
5. 125
6. 25
7. 125

// each compound listed below needs its MIC
1. O=C1CC(Sc2cccc(F)c2)N1 (racemic)
2. O=C1CC(Sc2ccc(C(F)(F)F)cc2)N1 (racemic)
3. O=C1CC(Sc2ccccc2F)N1 (racemic)
4. O=C1CC(Sc2ccc(F)cc2Cl)N1C(=O)NC(c1ccccc1)c1ccccc1 (racemic)
5. O=C1CC(Sc2cccc(C(F)(F)F)c2)N1C(=O)NCc1ccccc1 (racemic)

Result:
[100, 12.5, 25, 50, 25]

----------
- System: Mycobacterium tuberculosis
- Measurement Protocol: Antimicrobial activity against Mycobacterium tuberculosis H37Rv incubated for 48 hrs by microdilution broth method
- Format: functional
Please provide measured MIC for the entries that follow.

Look over these answered cases.
- Compound: "O=C1CC(Sc2ccc(F)c(F)c2)N1 (racemic)"
  Tested Target: "Mycobacterium tuberculosis"
  MIC: "50 µg/mL"
- Compound: "O=C1CC(Sc2ccc(Cl)cc2Cl)N1 (racemic)"
  Tested Target: "Mycobacterium tuberculosis"
  MIC: "25 µg/mL"
- Compound: "O=C1CC(Sc2ccccc2C(F)(F)F)N1C(=O)NCc1ccccc1 (racemic)"
  Tested Target: "Mycobacterium tuberculosis"
  MIC: "125 µg/mL"
- Compound: "O=C1CC(Sc2ccccc2)N1 (racemic)"
  Tested Target: "Mycobacterium tuberculosis"
  MIC: "25 µg/mL"
- Compound: "COc1ccc(SC2CC(=O)N2)cc1OC (racemic)"
  Tested Target: "Mycobacterium tuberculosis"
  MIC: "250 µg/mL"

// each compound listed below needs its MIC
1. O=C1CC(Sc2ccc(F)cc2F)N1C(=O)NCc1ccccc1F (racemic)
2. CC(NC(=O)N1C(=O)CC1Sc1ccccc1)c1cccc2ccccc12 (racemic)
3. O=C1CC(Oc2ccc(C(F)(F)F)cc2)N1 (racemic)
4. COc1ccccc1SC1CC(=O)N1 (racemic)
5. CCNC(=O)N1C(=O)CC1Sc1ccc(F)cc1F (racemic)
6. O=C1CC(Sc2ccc(F)cc2Cl)N1 (racemic)
7. O=C1CC(Sc2ccc(F)c(Cl)c2)N1C(=O)NCc1ccccc1 (racemic)
8. O=C1CC(Sc2c(F)c(F)c(F)c(F)c2F)N1 (racemic)

Result:
["50 µg/mL", "> 100 µg/mL", "250 µg/mL", "250 µg/mL", "> 100 µg/mL", "25 µg/mL", "25 µg/mL", "> 100 µg/mL"]

// each compound listed below needs its MIC
1. COc1ccc(SC2CC(=O)N2)cc1 (racemic)
2. O=C1CC(Sc2ccc(F)cc2)N1C(=O)NCC(c1ccccc1)c1ccccc1 (racemic)
3. O=C1CC(Sc2ccc(F)cc2)N1C(=O)NCc1ccccc1 (racemic)
4. C#CCCCC(=O)N1C(=O)CC1Sc1ccccc1 (racemic)
5. O=C1CC([Se]c2ccccc2)N1 (racemic)
6. O=C1CC(Sc2cccc(C(F)(F)F)c2)N1 (racemic)
7. COc1ccc(OC)c(SC2CC(=O)N2)c1 (racemic)

Result:
100 µg/mL
> 100 µg/mL
6.25 µg/mL
45 µg/mL
25 µg/mL
6.25 µg/mL
250 µg/mL

----------
- Test system: Klebsiella pneumoniae
- Measurement Protocol: Antimicrobial activity against AmpC producing Klebsiella pneumoniae KLEB 249 incubated for 48 hrs by microdilution broth method
- Type: functional, organism-based
Activity calls are given as the source filed them. The calls are words filed in the database; no cut-off is given here.
Quantity Measured: MIC

Look over these answered cases.
- Compound: "O=C1CC(Sc2ccc(F)cc2)N1C(=O)NCc1ccccc1 (racemic)"
  Tested Target: "Klebsiella pneumoniae"
  Quantity Measured: "MIC"
  Reported Measurement: "inactive"
- Compound: "O=C1CC(Sc2cc(C(F)(F)F)cc(C(F)(F)F)c2)N1C(=O)NCc1ccccc1 (racemic)"
  Tested Target: "Klebsiella pneumoniae"
  Quantity Measured: "MIC"
  Reported Measurement: "inactive"
- Compound: "O=C1CC(Sc2ccc(F)c(F)c2)N1C(=O)NCc1ccccc1 (racemic)"
  Tested Target: "Klebsiella pneumoniae"
  Quantity Measured: "MIC"
  Reported Measurement: "inactive"
- Compound: "O=C1CC(Sc2ccccc2)N1C(=O)NCc1ccccc1 (racemic)"
  Tested Target: "Klebsiella pneumoniae"
  Quantity Measured: "MIC"
  Reported Measurement: "inactive"
- Compound: "O=C1CC(Sc2ccccc2F)N1C(=O)NCc1ccccc1 (racemic)"
  Tested Target: "Klebsiella pneumoniae"
  Quantity Measured: "MIC"
  Reported Measurement: "inactive"
- Compound: "O=C1CC(Sc2ccc(C(F)(F)F)cc2)N1C(=O)NCc1ccccc1 (racemic)"
  Tested Target: "Klebsiella pneumoniae"
  Quantity Measured: "MIC"
  Reported Measurement: "inactive"
- Compound: "O=C1CC(Sc2cccc(F)c2)N1C(=O)NCc1ccccc1 (racemic)"
  Tested Target: "Klebsiella pneumoniae"
  Quantity Measured: "MIC"
  Reported Measurement: "inactive"

Problem: Please tell me: MIC of O=C1CC(Sc2cccc(C(F)(F)F)c2)N1C(=O)NCc1ccccc1 (racemic) , system Klebsiella pneumoniae?
Result: inactive

----------
- System: Mycobacterium tuberculosis
- Measurement Protocol: Antimicrobial activity against Mycobacterium tuberculosis H37Rv incubated for 48 hrs by microdilution broth method
- Format: functional
Quantity Measured: MIC (µg/mL)
Numbers only, in µg/mL.

- Compound: "O=C1CC(Sc2ccc(Cl)cc2Cl)N1C(=O)NCc1ccccc1 (racemic)"
  MIC (µg/mL): 25

// each compound listed below needs its MIC
1. O=C1CC(Sc2ccccc2)N1C(=O)NCc1ccccc1 (racemic)
2. COc1ccc(OC)c(SC2CC(=O)N2C(=O)NCc2ccccc2)c1 (racemic)
3. O=C1CC(Sc2cccs2)N1 (racemic)

Result:
6.25
50
6.25

// each compound listed below needs its MIC
1. O=C1CC(Sc2cccs2)N1C(=O)NCc1ccccc1 (racemic)
2. O=C1CC(Sc2ccc(F)c(Cl)c2)N1 (racemic)

Result:
1. 6.25
2. 25

----------
- Test system: Mycobacterium tuberculosis
- Measurement Protocol: Antimicrobial activity against Mycobacterium tuberculosis H37Rv incubated for 48 hrs by microdilution broth method
- Format: functional
Please provide measured MIC for the entries that follow.

- Compound: "O=C1CC(Sc2ccccc2C(F)(F)F)N1 (racemic)"
  Reported Measurement: "≥ 100 µg/mL"
- Compound: "COc1ccccc1CNC(=O)N1C(=O)CC1Sc1ccc(F)cc1F (racemic)"
  Reported Measurement: "≥ 100 µg/mL"
- Compound: "O=C1CC(Sc2cccc3ccccc23)N1 (racemic)"
  Reported Measurement: "> 250 µg/mL"
- Compound: "C=CCSC1CC(=O)N1 (racemic)"
  Reported Measurement: "> 200 µg/mL"

// each compound listed below needs its MIC
1. CSc1ccc(SC2CC(=O)N2C(=O)NCc2ccccc2)cc1 (racemic)
2. O=C1CC(Sc2ccc(F)cc2)N1 (racemic)

Result:
["> 100 µg/mL", "> 100 µg/mL"]

----------
- System: Mycobacterium tuberculosis
- Measurement Protocol: Antimicrobial activity against Mycobacterium tuberculosis H37Rv incubated for 48 hrs by microdilution broth method
- Type: functional
Please provide measured MIC for the entries that follow.
Numbers only, in µg/mL.

- Molecule: "COc1ccc(SC2CC(=O)N2C(=O)NCc2ccccc2)cc1OC (racemic)"
  Value Unit: "µg/mL"
  Reported Measurement: 250

Problem: // query MIC value for entry O=C1CC(Sc2ccc(F)c(F)c2)N1C(=O)NCc1ccccc1 (racemic)
Result: 6.25
